Listed here are sequences together with their documented protein stability index.
- EXPERIMENT DESCRIPTION: protein stability index of a GFP-peptide fusion (GPS, HEK-293T) (PSI 1-6); higher = more stable;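 note: 24-mer peptide tiles fused after GFP, lentivirally expressed, FACS-sorted into six equal bins by GFP/DsRed ratio, decoded by Illumina sequencing, PSI is the read-weighted mean bin number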
- CONDITION SUMMARY: treatment: MLN4924 1 uM, 8 h; c terminus: native

Some solved entries appear below for comparison.
q: What measured protein stability index goes with RAKVQPQARKKEMEMRQLQRGPA [CPN1] ?
a: 3.11

q: What measured protein stability index goes with LRSFEGLMGTIKSKVSGGKRAWP [TPD52L3] ?
a: 3.63

q: What measured protein stability index goes with ARIQQSRRQCHAEEDQSQVPEAG [SMIM2] ?
a: 3.29

q: What measured protein stability index goes with IQWKNHDQNNHNTDRSSHKDSMN [EDNRA] ?
a: 5.49

q: What measured protein stability index goes with YINFRHLYKQRRRRYGQKKKKIH [HACD3] ?
a: 2.74

Next:
q: What measured protein stability index goes with IKPPCIPNGKENFSGGTSLWQNI [CAMK2D] ?
a: 3.2

q: What measured protein stability index goes with SFQPECSMKLTPLVLEVFGNEIS [VDR] ?
a: 2.41
